Answer each item with its documented T/C.
Tested on: P388 leukemia ip, CD2F1 mice, survival T/C
Assay: NCI In Vivo Anticancer Drug Screen. Data for tumor model P388 Leukemia (intraperitoneal) in CD2F1 (CDF1) mice
Conditions: endpoint: median survival time; dose: 100.0 mg/kg/injection; schedule: Q01DX005 (ip); vehicle: saline; higher = longer survival
Description: The antitumor activity of compounds was measured in mice bearing transplantable tumors. Survival or tumor size were measured and the results are expressed as the measurement made in the treated group (T) divided by the measurement made in the vehicle treated control group (C). The tumor model used in this assay is P388 Leukemia (intraperitoneal) in CD2F1 (CDF1) mice
Toxic doses and inconclusive results are not listed.

Reference set, count: 5
MOLECULE | TEST_SYSTEM | T/C
Cl/N=C1/C=CC=C/C1=N/Cl | P388 leukemia ip, CD2F1 mice, survival T/C | 104 % of control
Nc1ccc(-c2c3ccccc3nc3cc(N)ccc23)cc1 | P388 leukemia ip, CD2F1 mice, survival T/C | 115 % of control
CCCC(=O)NC1C(Nc2ccc(S(=O)(=O)Nc3nc(C)cc(C)n3)cc2)OC(CO)C(O)C1O (stereo not drawn) | P388 leukemia ip, CD2F1 mice, survival T/C | 92 % of control
NCC(=O)NC(CCCN=C(N)N)C(=O)O (stereo not drawn) | P388 leukemia ip, CD2F1 mice, survival T/C | 99 % of control
Cc1ccc(S(=O)CC2=NC(C)(C)CO2)cc1 (stereo not drawn) | P388 leukemia ip, CD2F1 mice, survival T/C | 98 % of control

Please state, for each entry, its recorded T/C.
1. CCN1CC2C3CCC(C)(O3)C2C1 (stereo not drawn)
2. CC(=O)N(O)C(C)=O
3. CCCCCN(CCCCC)CC(C)(O)CNc1cc(OC)cc2cccnc12 (stereo not drawn)

["98 % of control", "104 % of control", "87 % of control"]

Please state, for each entry, its recorded T/C.
1. C1CCC2CC3CCCCN3COC2CC1 (stereo not drawn)
2. C=C=C(C)C(c1ccccc1)N(C)C (stereo not drawn)

118 % of control
109 % of control

Please state, for each entry, its recorded T/C.
1. C=CCCCN1C(=O)CCC1=O
2. CC(O)CCOCCCBr (stereo not drawn)
3. CCCCCCCCCCCCOCCCOP(=O)([O-])OCC[N+](C)(C)C

["97 % of control", "102 % of control", "107 % of control"]
